- Experiment: yeast display, Sf9 membrane polyspecificity reagent, FACS + sequencing; frameworks hold sequencing errors

# Entry Sequence, polyreactivity (PSR sort gate)
rows = [
    ("QVQLVESGGGLVQAGGSLRLSCAASGRIFPKYAMGWYRQAPGKERELVARISVRGGRTYYADSVKGRFTISRDNAKNTVYLQMNSLKPEDTAVYYCAAYTRPAYDYWGQGTQVTVSS", "high polyreactivity"),
    ("QVQLVESGGGLFQAGGSLRLSCAASGIIFVRNAMGWSRQAPGKERELVAAITPSGGSTYYADSVKGRFTISRDNAKNTVYLQMNSLKPEDTAVYYCAAPYRYRSLYDNWGQGSQVTVSS", "high polyreactivity"),
    ("QVQLVESGGGLVQAGGSLRLSCAASGGIFDANAMGWYRQAPGKERELVAAISSGGITKYADSVKGRFTISRDNAKNTVYLQMNSLKPEDTAVYYCAASWYRYRFIRYDYWGQGTQVTVSS", "high polyreactivity"),
    ("QVQLVESGGGLVQAGGSLRLSCAASGRTLTYNVMGWYRPAPGKERELVASISATGGSTYYADSVKGRFTISRDNAKNTVYLQMNSLKPEDTAVYSCAARGYRYHYATRYDYWGQATQVTVSS", "high polyreactivity"),
]
